System: WI-38
Test: Antiproliferative activity against human WI38 cells after 72 hrs by MTT assay
Assay type: cell-based
Conditions: WI-38, 72 h
Mark 1.0 only for IC50 values smaller than 3000 nM; exact matches and larger values are 0.0.

> print(dat)
                            compound.smiles  classification
1  Cl.c1ccc(Cn2cc(COc3ccc(-c4nc5cc(C6=NCCN6)ccc5[nH]4)cc3)nn2)cc1             0.0
2  Fc1ccc(-n2cc(COc3ccc(-c4nc5cc(C6=NCCN6)ccc5[nH]4)cc3)nn2)cc1             1.0
3  Clc1ccc(-n2cc(-c3nc4cc(C5=NCCN5)ccc4[nH]3)nn2)cc1             1.0

Hi there! Is IC50 for "CC(C)NC(=N)c1ccc2[nH]c(-c3cn(-c4ccc(Cl)cc4)nn3)nc2c1" below 3000 nM, do you know?
0.0

Hi there! Is IC50 for "Clc1ccc(-n2cc(COc3ccc(-c4nc5ccccc5[nH]4)cc3)nn2)cc1" below 3000 nM, do you know?
1.0

###

System: HeLa
Test: Antiproliferative activity against human HeLa cells after 72 hrs by MTT assay
Assay type: functional, cell-based
Entries and their pIC50 values follow.
Remember, pIC50 is on a log scale: it is -log10 of the molar concentration.

> print(dat)
                            compound.smiles  parameter  observed.result
1  N=C(N)c1ccc2[nH]c(-c3ccc(OCc4cn(-c5ccc(C(F)(F)F)cc5)nn4)cc3)nc2c1      pIC50             6.49

HeLa pIC50 of "CC(C)NC(=N)c1ccc2[nH]c(-c3ccc(OCc4cn(-c5ccccc5)nn4)cc3)nc2c1" is 4.78

HeLa pIC50 of "N=C(N)c1ccc2[nH]c(-c3ccc(OCc4cn(Cc5ccccc5)nn4)cc3)nc2c1" is 4.86

HeLa pIC50 of "c1ccc(-n2cc(COc3ccc(-c4nc5cc(C6=NCCN6)ccc5[nH]4)cc3)nn2)cc1" is 5.11

HeLa pIC50 of "Fc1ccc(-n2cc(COc3ccc(-c4nc5cc(C6=NCCN6)ccc5[nH]4)cc3)nn2)cc1" is 6.01

HeLa pIC50 of "Clc1ccc(-n2cc(-c3nc4cc(C5=NCCN5)ccc4[nH]3)nn2)cc1" is 6.16

HeLa pIC50 of "N=C(N)c1ccc2[nH]c(-c3ccc(OCc4cn(-c5ccc(I)cc5)nn4)cc3)nc2c1" is 5.19

###

Test system: A549
Assay: Antiproliferative activity against human A549 cells after 72 hrs by MTT assay
Assay type: functional, cell-based
Conditions: A549, 72 h
Entries and their pIC50 values follow.
Remember, pIC50 is on a log scale: it is -log10 of the molar concentration.

Consider the reported pIC50 for these compounds:
> print(dat)
                            compound.smiles  observed.result
1  N=C(N)c1ccc2[nH]c(-c3ccc(OCc4cn(-c5ccc(Cl)cc5)nn4)cc3)nc2c1             7.30
2  CC(C)NC(=N)c1ccc2[nH]c(-c3ccc(OCc4cn(-c5ccc(C(F)(F)F)cc5)nn4)cc3)nc2c1             4.07

Then there is this compound:
For "Cl.Clc1ccc(Cn2cc(COc3ccc(-c4nc5cc(C6=NCCN6)ccc5[nH]4)cc3)nn2)cc1" the compound record lists pIC50 as 5.03
